Source: patent US5972625A

study.system: L-selectin
assay.protocol: Inhibition of L-selectin binding to GlyCAM-1 (ELISA with L-selectin-IgG chimera)
study.conditions: L-selectin
Form field: IC50 (one value per entry).
Form entry: value (µM) — number only.

Answer with the recorded IC50 for the molecule listed here: O=S(=O)(O)OC[C@H]1O[C@@H](O[C@H]2[C@H](O)[C@@H](O)C(O)O[C@@H]2CO)[C@H](O)[C@@H](O)[C@H]1O (stereo partly drawn) 10000

Others:
Answer with the recorded IC50 for the molecule listed here: CC(=O)N[C@H]1C(O)O[C@H](CO)[C@@H](O[C@@H]2O[C@H](CO)[C@H](O)[C@H](OS(=O)(=O)O)[C@H]2O)[C@@H]1O[C@@H]1O[C@@H](C)[C@@H](O)[C@@H](O)[C@@H]1O (stereo partly drawn) 3000

Answer with the recorded IC50 for the molecule listed here: O=S(=O)(O)OC[C@H]1O[C@@H](O[C@H]2[C@H](O)[C@@H](O)C(O)O[C@@H]2CO)[C@H](O)[C@@H](OS(=O)(=O)O)[C@H]1OS(=O)(=O)O (stereo partly drawn) 200

Answer with the recorded IC50 for the molecule listed here: O=P(O)(O)OC[C@H]1OC(O)[C@@H](O)[C@@H](O)[C@@H]1O (stereo partly drawn) [mannose-6-phosphate] 1500

Answer with the recorded IC50 for the molecule listed here: O=S(=O)(O)OC[C@H]1O[C@@H](O[C@H]2[C@H](O)[C@@H](O)C(O)O[C@@H]2CO)[C@H](O)[C@@H](OS(=O)(=O)O)[C@H]1O (stereo partly drawn) 400

Answer with the recorded IC50 for the molecule listed here: `O=P(O)(O)O[C@H]1[C@H](OP(=O)(O)O)[C@@H](OP(=O)(O)O)[C@H](OP(=O)(O)O)[C@@H](OP(=O)(O)O)[C@H]1OP(=O)(O)O` 2

====

study.system: P-selectin
assay.protocol: Inhibition of P-selectin binding to GlyCAM-1 (ELISA with P-selectin-IgG chimera)
Form field: IC50 (one value per entry).
Please state the number and follow it with the unit.

Answer with the recorded IC50 for the molecule listed here: `O=P(O)(O)O[C@H]1[C@H](OP(=O)(O)O)[C@@H](OP(=O)(O)O)[C@H](OP(=O)(O)O)[C@@H](OP(=O)(O)O)[C@H]1OP(=O)(O)O` 0.2 µM

Others:
Answer with the recorded IC50 for the molecule listed here: CC(=O)N[C@H]1C(O)O[C@H](CO)[C@@H](O[C@@H]2O[C@H](CO)[C@H](O)[C@H](OS(=O)(=O)O)[C@H]2O)[C@@H]1O[C@@H]1O[C@@H](C)[C@@H](O)[C@@H](O)[C@@H]1O (some centres unmarked) 3000 µM
